Experiment: yeast display, Sf9 membrane polyspecificity reagent, FACS + sequencing; frameworks hold sequencing errors
recordedMetric: polyreactivity (PSR sort gate)

These recorded examples may help you get a feel for the data.
QVQLVESGGGLVQAGGSLRLSCAASGSTFATYTMGWYRQAPGKERELVATISRSGTTTYYADSVKGRFTISRDNAKYTVYLQMNSLKPEDTAVYYCNTLRAYWTYHFYGAVRDGYDYWGQGTQVTVST
low polyreactivity
QVQLVESGGGLVQAGGSLRLSCAASGNIFLYYAMRWYRQAPGKERELVADIDSSGASTYYADSVKVRFTISRDNAKNTVYLQMNSLKPEDTAVYYCAAEFHWWYAGYDYGYWGQGTKVTVSS
low polyreactivity
QVQLVESGGGLVQAGGSLRLSCAASGITFLDYTMGWYRQAPGKERELVATISKSGGSTYYADSVKGRFTISRDNAKNTVYLQMNSLKPEDTAVYYFAARGFSFWRYYYWGQGTQVTVSS
high polyreactivity
QVQLVESGGGLVQAGGSLRLSCAASGITLHYYAMGWYRQAPGKEREFVAAISWTGGSTYYADSVKGRFTISRDTAKNTVYLQMNSLKPEDTAVYYCAAEGGAFRTYYYWGQGTQVTVSS
high polyreactivity

--- query ---
Which value of polyreactivity (PSR sort gate) has been reported for QVQLVESGGGLVQAGGSLRLICSASGSIFYRNVKRWSRQAPGKEREFVATISRGGTTNYADSVKGRITISRDNAKYTVYLQMNSLKPEDTAVYYCAAPIGVVYVGKGYDYWGQGTQVTLSS in the records?
low polyreactivity
